Reported values of solubility (g/100 g solution) for individual entries
Protocol description: xn = mol fraction of the nth substance listed, in the solute-free solvent
Condition description: 308.15 K; x2 = 0.4
Experimental endpoint: solubility (g/100 g solution)

[[record]]
molecule = "CC(=O)OC(c1ccccc1)C(Cl)(Cl)Cl (configuration not stated) + CCO + O"
experimental_endpoint = "solubility (g/100 g solution)"
test_value = 1.94

[[record]]
molecule = "O=C(O)c1ccc(C(=O)O)o1 + O + COCCOC"
experimental_endpoint = "solubility (g/100 g solution)"
test_value = 4.81

[[record]]
molecule = "COC1=CC(=O)CC(C)C12Oc1c(Cl)c(OC)cc(OC)c1C2=O (configuration not stated) + CC(C)=O + CC(C)O"
experimental_endpoint = "solubility (g/100 g solution)"
test_value = 1.7

[[record]]
molecule = "O=C1CCc2ccc(OCCCCN3CCN(c4cccc(Cl)c4Cl)CC3)cc2N1 + CCC(C)=O + CCOC(C)=O"
experimental_endpoint = "solubility (g/100 g solution)"
test_value = 2.48

[[record]]
molecule = "CCCCOc1ccc(C(=O)CCN2CCCCC2)cc1.Cl + CCO + CCCCCC"
experimental_endpoint = "solubility (g/100 g solution)"
test_value = 19.8

[[record]]
molecule = "O=C1CCc2ccc(OCCCCN3CCN(c4cccc(Cl)c4Cl)CC3)cc2N1 + CCC(C)=O + CCCO"
experimental_endpoint = "solubility (g/100 g solution)"
test_value = 4.34

[[record]]
molecule = "O=C(O)c1ccc(C(=O)O)o1 + O + COCCOCCOC"
experimental_endpoint = "solubility (g/100 g solution)"
test_value = 4.22


----------
Recorded solubility (g/100 g solution) for the following compounds
Protocol description: xn = mol fraction of the nth substance listed, in the solute-free solvent
Condition description: 298.15 K; x2 = 0.7
Experimental endpoint: solubility (g/100 g solution)

[[record]]
compound = "O=C1CCc2ccc(OCCCCN3CCN(c4cccc(Cl)c4Cl)CC3)cc2N1 + CCC(C)=O + CC(C)=O"
experimental_endpoint = "solubility (g/100 g solution)"
test_value = 2.43

[[record]]
compound = "CCCCOc1ccc(C(=O)CCN2CCCCC2)cc1.Cl + CO + C1CCOC1"
experimental_endpoint = "solubility (g/100 g solution)"
test_value = 42.9

[[record]]
compound = "CC(=O)OC(c1ccccc1)C(Cl)(Cl)Cl (stereo not given) + CC(=O)O + O"
experimental_endpoint = "solubility (g/100 g solution)"
test_value = 4.74

[[record]]
compound = "O=C1CCc2ccc(OCCCCN3CCN(c4cccc(Cl)c4Cl)CC3)cc2N1 + CCC(C)=O + CCOC(C)=O"
experimental_endpoint = "solubility (g/100 g solution)"
test_value = 2.03

[[record]]
compound = "O=C(O)c1ccc(C(=O)O)o1 + C1CCOC1 + O"
experimental_endpoint = "solubility (g/100 g solution)"
test_value = 6.39


----------
Protocol description: xn = mol fraction of the nth substance listed, in the solute-free solvent
Condition description: 283.15 K; x2 = 0.5
Experimental endpoint: solubility (g/100 g solution)

[[record]]
compound = "CCCCOc1ccc(C(=O)CCN2CCCCC2)cc1.Cl + CCO + O"
experimental_endpoint = "solubility (g/100 g solution)"
test_value = 35.7

[[record]]
compound = "O=C1CCc2ccc(OCCCCN3CCN(c4cccc(Cl)c4Cl)CC3)cc2N1 + CCC(C)=O + CCCO"
experimental_endpoint = "solubility (g/100 g solution)"
test_value = 2.05

[[record]]
compound = "COC1=CC(=O)CC(C)C12Oc1c(Cl)c(OC)cc(OC)c1C2=O (stereo unspecified) + CC(=O)CC(C)C + CC(C)O"
experimental_endpoint = "solubility (g/100 g solution)"
test_value = 0.533

[[record]]
compound = "CCCCOc1ccc(C(=O)CCN2CCCCC2)cc1.Cl + CCO + CCOC(C)=O"
experimental_endpoint = "solubility (g/100 g solution)"
test_value = 16.5

[[record]]
compound = "O=C1CCc2ccc(OCCCCN3CCN(c4cccc(Cl)c4Cl)CC3)cc2N1 + CCC(C)=O + CCOC(C)=O"
experimental_endpoint = "solubility (g/100 g solution)"
test_value = 0.975

[[record]]
compound = "COC1=CC(=O)CC(C)C12Oc1c(Cl)c(OC)cc(OC)c1C2=O (stereo unspecified) + CCC(C)=O + CC(C)O"
experimental_endpoint = "solubility (g/100 g solution)"
test_value = 0.96

[[record]]
compound = "O=C(O)C1CSCN1 (stereo unspecified) + O + CC#N"
experimental_endpoint = "solubility (g/100 g solution)"
test_value = 0.183

[[record]]
compound = "CCCCOc1ccc(C(=O)CCN2CCCCC2)cc1.Cl + CO + C1CCOC1"
experimental_endpoint = "solubility (g/100 g solution)"
test_value = 23.1

[[record]]
compound = "COC1=CC(=O)CC(C)C12Oc1c(Cl)c(OC)cc(OC)c1C2=O (stereo unspecified) + CC(C)=O + CC(C)O"
experimental_endpoint = "solubility (g/100 g solution)"
test_value = 1.23

[[record]]
compound = "O=C1CCc2ccc(OCCCCN3CCN(c4cccc(Cl)c4Cl)CC3)cc2N1 + CCC(C)=O + CC(C)=O"
experimental_endpoint = "solubility (g/100 g solution)"
test_value = 1.28

[[record]]
compound = "CCCCOc1ccc(C(=O)CCN2CCCCC2)cc1.Cl + CCO + CCCCCC"
experimental_endpoint = "solubility (g/100 g solution)"
test_value = 15.2


----------
Protocol description: xn = mol fraction of the nth substance listed, in the solute-free solvent
Condition description: 308.15 K; x2 = 0.6
Experimental endpoint: solubility (g/100 g solution)

[[record]]
compound = "CC(=O)OC(c1ccccc1)C(Cl)(Cl)Cl (configuration not stated) + CC(=O)O + O"
experimental_endpoint = "solubility (g/100 g solution)"
test_value = 4.47

[[record]]
compound = "COC1=CC(=O)CC(C)C12Oc1c(Cl)c(OC)cc(OC)c1C2=O (configuration not stated) + CCC(C)=O + CC(C)O"
experimental_endpoint = "solubility (g/100 g solution)"
test_value = 2.26

[[record]]
compound = "CCCCOc1ccc(C(=O)CCN2CCCCC2)cc1.Cl + CCO + O"
experimental_endpoint = "solubility (g/100 g solution)"
test_value = 51.3

[[record]]
compound = "O=C1CCc2ccc(OCCCCN3CCN(c4cccc(Cl)c4Cl)CC3)cc2N1 + CCC(C)=O + CC(C)=O"
experimental_endpoint = "solubility (g/100 g solution)"
test_value = 3.46

[[record]]
compound = "CCCCOc1ccc(C(=O)CCN2CCCCC2)cc1.Cl + CO + C1CCOC1"
experimental_endpoint = "solubility (g/100 g solution)"
test_value = 43

[[record]]
compound = "O=C1CCc2ccc(OCCCCN3CCN(c4cccc(Cl)c4Cl)CC3)cc2N1 + CCC(C)=O + CCOC(C)=O"
experimental_endpoint = "solubility (g/100 g solution)"
test_value = 2.86

[[record]]
compound = "O=C(O)c1ccc(C(=O)O)o1 + O + COCCOC"
experimental_endpoint = "solubility (g/100 g solution)"
test_value = 6.36

[[record]]
compound = "O=C(O)c1ccc(C(=O)O)o1 + C1CCOC1 + O"
experimental_endpoint = "solubility (g/100 g solution)"
test_value = 7.5

[[record]]
compound = "COC1=CC(=O)CC(C)C12Oc1c(Cl)c(OC)cc(OC)c1C2=O (configuration not stated) + CC(C)=O + CC(C)O"
experimental_endpoint = "solubility (g/100 g solution)"
test_value = 2.72

[[record]]
compound = "O=C(O)c1ccc(C(=O)O)o1 + O + COCCOCCOC"
experimental_endpoint = "solubility (g/100 g solution)"
test_value = 6.45

[[record]]
compound = "CCCCOc1ccc(C(=O)CCN2CCCCC2)cc1.Cl + CCO + CCOC(C)=O"
experimental_endpoint = "solubility (g/100 g solution)"
test_value = 32.2

[[record]]
compound = "CC(=O)OC(c1ccccc1)C(Cl)(Cl)Cl (configuration not stated) + CC(C)O + O"
experimental_endpoint = "solubility (g/100 g solution)"
test_value = 6.23

[[record]]
compound = "CCCCOc1ccc(C(=O)CCN2CCCCC2)cc1.Cl + CCO + CCCCCC"
experimental_endpoint = "solubility (g/100 g solution)"
test_value = 29.9

[[record]]
compound = "CC(=O)OC(c1ccccc1)C(Cl)(Cl)Cl (configuration not stated) + CCO + O"
experimental_endpoint = "solubility (g/100 g solution)"
test_value = 4.3

[[record]]
compound = "O=C(O)c1ccc(C(=O)O)o1 + C1COCCO1 + O"
experimental_endpoint = "solubility (g/100 g solution)"
test_value = 4.11

[[record]]
compound = "O=C1CCc2ccc(OCCCCN3CCN(c4cccc(Cl)c4Cl)CC3)cc2N1 + CCC(C)=O + CCCO"
experimental_endpoint = "solubility (g/100 g solution)"
test_value = 5.16

[[record]]
compound = "COC1=CC(=O)CC(C)C12Oc1c(Cl)c(OC)cc(OC)c1C2=O (configuration not stated) + CC(=O)CC(C)C + CC(C)O"
experimental_endpoint = "solubility (g/100 g solution)"
test_value = 1.27


Data provenance is the CheMixHub drug solubility set.
